From: patent US11498903B2

A collection of molecules and their measured EC50
# subjectOfTest: human APJ receptor (Homo sapiens)
# Construct: expressed in transfected cells
# assayRemarks: Intracellular cAMP accumulation assay (APJ hcAMP, HTRF)
# Assay type: cell-based
# particulars: Table 1; HEK293 cells stably expressing human APJ receptor; inhibition of forskolin-mediated cAMP production; read-out: APJ hcAMP EC50

| molecule | subjectOfTest | EC50 |
| --- | --- | --- |
| COc1cc2nc(-c3cccc(Cl)c3-c3ccc(C(=O)N[C@H](c4ccc(F)cc4)C4CC4)cc3C(=O)O)[nH]c2cc1F | human APJ receptor (Homo sapiens) | < 10 nM |
| CCC[C@H](NC(=O)c1ccc(-c2c(Cl)cccc2-c2nc3cc(Cl)c(F)cc3[nH]2)c(C(=O)O)c1)C1CCCCCC1 | human APJ receptor (Homo sapiens) | < 10 nM |
| COc1cc2nc(-c3cccc(Cl)c3-c3ccc(C(=O)N[C@H](c4ccccc4)C4CC4)cc3C(=O)O)[nH]c2cc1F (single isomer, unassigned) | human APJ receptor (Homo sapiens) | < 10 nM |
| CCC[C@H](NC(=O)c1ccc(-c2c(Cl)cccc2-c2nc3ccccc3[nH]2)c(C(=O)O)c1)C1CCCCC1 (single isomer, unassigned) | human APJ receptor (Homo sapiens) | < 10 nM |
| CCC[C@@H](NC(=O)c1ccc(-c2c(Cl)cccc2-c2nc3cc(Cl)cc(C)c3[nH]2)c(C(=O)O)c1)c1ccccc1 (atropisomer, axis not shown) | human APJ receptor (Homo sapiens) | < 10 nM |
| CCCC(NC(=O)c1ccc(-c2c(Cl)cccc2-c2nc3ccccc3[nH]2)c(C(=O)O)c1)c1ccccc1OC(F)(F)F (single isomer, unassigned) | human APJ receptor (Homo sapiens) | 10 to 100 nM |
| CCCC(NC(=O)c1ccc(-c2c(Cl)cccc2-c2nc3ccccc3[nH]2)c(C(=O)O)c1)c1ccc(Cl)cc1OC (single isomer, unassigned) [Example 166] | human APJ receptor (Homo sapiens) | < 10 nM |
| COC(=O)c1cc(C(=O)N[C@H](c2ccc(Cl)cc2)C2CC2)ccc1-c1c(Cl)cccc1-c1nc2cc(OC)c(F)cc2[nH]1 (single isomer, unassigned) | human APJ receptor (Homo sapiens) | 101 to 500 nM |
| O=C(NC(c1ccccc1)C1CC1)c1ccc(-c2cc(Cl)ccc2-c2nc3ccccc3[nH]2)c(C(=O)O)c1 (single isomer, unassigned) | human APJ receptor (Homo sapiens) | < 10 nM |
| CCC[C@@H](NC(=O)c1ccc(-c2cc(Cl)ccc2-c2nc3cc(C)ccc3[nH]2)c(C(=O)O)c1)c1ccccc1 | human APJ receptor (Homo sapiens) | < 10 nM |
| CCC[C@@H](NC(=O)c1ccc(-c2c(Cl)cccc2-c2ncc(-c3ccc(C)c(F)c3)[nH]2)c(C(=O)O)c1)c1ccccc1 (atropisomer, axis not shown) | human APJ receptor (Homo sapiens) | < 10 nM |

* * *

# subjectOfTest: human APJ receptor (Homo sapiens, UniProt P35414)
# Construct: expressed in transfected cells
# Sequence (P35414 whole entry): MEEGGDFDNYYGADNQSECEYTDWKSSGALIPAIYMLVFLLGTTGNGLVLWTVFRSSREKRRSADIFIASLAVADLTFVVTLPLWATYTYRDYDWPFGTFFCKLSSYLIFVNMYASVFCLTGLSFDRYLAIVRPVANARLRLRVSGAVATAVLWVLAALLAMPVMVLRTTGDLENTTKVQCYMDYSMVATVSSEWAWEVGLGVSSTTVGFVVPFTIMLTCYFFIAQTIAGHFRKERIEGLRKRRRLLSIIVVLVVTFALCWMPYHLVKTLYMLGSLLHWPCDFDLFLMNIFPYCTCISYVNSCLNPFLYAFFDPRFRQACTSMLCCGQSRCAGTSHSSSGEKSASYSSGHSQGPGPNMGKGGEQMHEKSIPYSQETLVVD
# assayRemarks: Intracellular cAMP accumulation assay (APJ hcAMP, HTRF)
# Format: cell-based
# particulars: Table 3; HEK293 cells stably expressing human APJ receptor; read-out: APJ cAMP Human EC50

| molecule | subjectOfTest | EC50 |
| --- | --- | --- |
| CCC[C@@H](NC(=O)c1ccc(-c2c(Cl)cccc2-c2nc3cccc(O)c3[nH]2)c(C(=O)O)c1)c1ccccc1 (atropisomer, axis not shown) [Example 92] | human APJ receptor (Homo sapiens, UniProt P35414) | < 10 nM |
| CCC[C@@H](NC(=O)c1ccc(-c2c(Cl)cccc2-c2nc3cc(F)cc(F)c3[nH]2)c(C(=O)O)c1)c1ccccc1 (atropisomer, axis not shown) | human APJ receptor (Homo sapiens, UniProt P35414) | < 10 nM |
| CCC[C@@H](NC(=O)c1ccc(-c2c(Cl)cccc2-c2nc3cccc(O)c3[nH]2)c(C(=O)O)c1)c1ccccc1 (atropisomer, axis not shown) [Example 99] | human APJ receptor (Homo sapiens, UniProt P35414) | 10 to 100 nM |
| CCC[C@@H](NC(=O)c1ccc(-c2c(Cl)cccc2-c2nc(C)c(-c3ccccc3)[nH]2)c(C(=O)O)c1)c1ccccc1 (atropisomer, axis not shown) | human APJ receptor (Homo sapiens, UniProt P35414) | 10 to 100 nM |
| O=C(N[C@H](CN1CCOCC1)c1ccccc1)c1ccc(-c2c(Cl)cccc2-c2nc3ccccc3[nH]2)c(C(=O)O)c1 (atropisomer, axis not shown) | human APJ receptor (Homo sapiens, UniProt P35414) | < 10 nM |
| CCC[C@@H](NC(=O)c1ccc(-c2c(Cl)cccc2-c2nc3cnccc3[nH]2)c(C(=O)O)c1)c1ccccc1 (atropisomer, axis not shown) | human APJ receptor (Homo sapiens, UniProt P35414) | < 10 nM |
| COc1cc2[nH]c(-c3cccc(Cl)c3-c3ccc(C(=O)NCc4ccccc4)cc3C(=O)O)nc2cc1F | human APJ receptor (Homo sapiens, UniProt P35414) | 10 to 100 nM |
| CCC[C@H](NC(=O)c1ccc(-c2c(Cl)cccc2-c2nc3ccccc3[nH]2)c(C(=O)O)c1)c1ccccc1 (atropisomer, axis not shown) | human APJ receptor (Homo sapiens, UniProt P35414) | 10 to 100 nM |
| CCC[C@@H](NC(=O)c1ccc(-c2c(Cl)cccc2-c2ncc(-c3ccc(C)c(F)c3)[nH]2)c(C(=O)O)c1)c1ccccc1 (atropisomer, axis not shown) | human APJ receptor (Homo sapiens, UniProt P35414) | < 10 nM |
| CCC[C@@H](NC(=O)c1ccc(-c2c(Cl)cccc2-c2nc3cc(OC)c(F)cc3[nH]2)c(-c2n[nH]c(=O)o2)c1)c1ccccc1 | human APJ receptor (Homo sapiens, UniProt P35414) | < 10 nM |
| COc1ccc(CNC(=O)c2ccc(-c3c(Cl)cccc3-c3nc4cc(F)c(OC)cc4[nH]3)c(C(=O)O)c2)cc1 | human APJ receptor (Homo sapiens, UniProt P35414) | 10 to 100 nM |
| COCCNC(=O)c1ccc(-c2c(Cl)cccc2-c2nc3cc(F)c(OC)cc3[nH]2)c(C(=O)O)c1 | human APJ receptor (Homo sapiens, UniProt P35414) | < 10 nM |
